Biological target: GluN2C-containing NMDA receptors (Homo sapiens)
Assay: Two-electrode voltage-clamp recordings from Xenopus laevis oocytes, GluN2C
Format: cell-based
Conditions: Table 1; in brackets after EC50; percent of response without compound
API: label(entry) gives true (1) if the entry's maximal potentiation Glu N2C is strictly smaller than 400%; on equality or larger values it gives false (0).

Reference set, count: 5
{"chemical_string": "Cc1sc2ncn(CC(=O)N3CCCC3)c(=O)c2c1-c1ccc(Br)cc1", "class_name": "false (0)"}
{"chemical_string": "Cc1sc2ncn(CC(=O)N3CCCC3)c(=O)c2c1-c1cc(F)cc(F)c1", "class_name": "false (0)"}
{"chemical_string": "Cc1sc2ncn(CC(=O)N3CCCC3)c(=O)c2c1-c1cc(I)cc(I)c1", "class_name": "false (0)"}
{"chemical_string": "[N-]=[N+]=Nc1ccc(-c2csc3ncn(CC(=O)N4CCCC4)c(=O)c23)cc1", "class_name": "false (0)"}
{"chemical_string": "CCOc1ccc(-c2c(C)sc3ncn(CC(=O)N4CCCC4)c(=O)c23)cc1", "class_name": "true (1)"}

Qu. Confirm or reject: maximal potentiation Glu N2C of Cc1sc2ncn(CC(=O)N3CCCC3)c(=O)c2c1-c1cccc(-n2ccnc2)c1 lies strictly below 400%
Ans. false (0)

Qu. Confirm or reject: maximal potentiation Glu N2C of O=C(Cn1cnc2scc(-c3ccc(Cl)cc3)c2c1=O)N1CCCC1 lies strictly below 400%
Ans. false (0)

Qu. Confirm or reject: maximal potentiation Glu N2C of Cc1sc2ncn(CC(=O)N3CCCC3)c(=O)c2c1-c1cccc(-n2cncn2)c1 lies strictly below 400%
Ans. true (1)

Qu. Confirm or reject: maximal potentiation Glu N2C of Cc1sc2ncn(CC(=O)N3CCCC3)c(=O)c2c1-c1ccccc1 lies strictly below 400%
Ans. true (1)

Qu. Confirm or reject: maximal potentiation Glu N2C of Cc1sc2ncn(CC(=O)N3CCCC3)c(=O)c2c1-c1cccc(Cl)c1 lies strictly below 400%
Ans. false (0)

Qu. Confirm or reject: maximal potentiation Glu N2C of Cc1sc2ncn(CC(=O)N3CCCC3)c(=O)c2c1-c1cccc(I)c1 lies strictly below 400%
Ans. false (0)

Qu. Confirm or reject: maximal potentiation Glu N2C of Cc1sc2ncn(CC(=O)N3CCCC3)c(=O)c2c1-c1ccc(Br)c(Br)c1 lies strictly below 400%
Ans. false (0)

* * *

Biological target: UniProt:O15399
Sequence (O15399 28-1336, other chains not shown): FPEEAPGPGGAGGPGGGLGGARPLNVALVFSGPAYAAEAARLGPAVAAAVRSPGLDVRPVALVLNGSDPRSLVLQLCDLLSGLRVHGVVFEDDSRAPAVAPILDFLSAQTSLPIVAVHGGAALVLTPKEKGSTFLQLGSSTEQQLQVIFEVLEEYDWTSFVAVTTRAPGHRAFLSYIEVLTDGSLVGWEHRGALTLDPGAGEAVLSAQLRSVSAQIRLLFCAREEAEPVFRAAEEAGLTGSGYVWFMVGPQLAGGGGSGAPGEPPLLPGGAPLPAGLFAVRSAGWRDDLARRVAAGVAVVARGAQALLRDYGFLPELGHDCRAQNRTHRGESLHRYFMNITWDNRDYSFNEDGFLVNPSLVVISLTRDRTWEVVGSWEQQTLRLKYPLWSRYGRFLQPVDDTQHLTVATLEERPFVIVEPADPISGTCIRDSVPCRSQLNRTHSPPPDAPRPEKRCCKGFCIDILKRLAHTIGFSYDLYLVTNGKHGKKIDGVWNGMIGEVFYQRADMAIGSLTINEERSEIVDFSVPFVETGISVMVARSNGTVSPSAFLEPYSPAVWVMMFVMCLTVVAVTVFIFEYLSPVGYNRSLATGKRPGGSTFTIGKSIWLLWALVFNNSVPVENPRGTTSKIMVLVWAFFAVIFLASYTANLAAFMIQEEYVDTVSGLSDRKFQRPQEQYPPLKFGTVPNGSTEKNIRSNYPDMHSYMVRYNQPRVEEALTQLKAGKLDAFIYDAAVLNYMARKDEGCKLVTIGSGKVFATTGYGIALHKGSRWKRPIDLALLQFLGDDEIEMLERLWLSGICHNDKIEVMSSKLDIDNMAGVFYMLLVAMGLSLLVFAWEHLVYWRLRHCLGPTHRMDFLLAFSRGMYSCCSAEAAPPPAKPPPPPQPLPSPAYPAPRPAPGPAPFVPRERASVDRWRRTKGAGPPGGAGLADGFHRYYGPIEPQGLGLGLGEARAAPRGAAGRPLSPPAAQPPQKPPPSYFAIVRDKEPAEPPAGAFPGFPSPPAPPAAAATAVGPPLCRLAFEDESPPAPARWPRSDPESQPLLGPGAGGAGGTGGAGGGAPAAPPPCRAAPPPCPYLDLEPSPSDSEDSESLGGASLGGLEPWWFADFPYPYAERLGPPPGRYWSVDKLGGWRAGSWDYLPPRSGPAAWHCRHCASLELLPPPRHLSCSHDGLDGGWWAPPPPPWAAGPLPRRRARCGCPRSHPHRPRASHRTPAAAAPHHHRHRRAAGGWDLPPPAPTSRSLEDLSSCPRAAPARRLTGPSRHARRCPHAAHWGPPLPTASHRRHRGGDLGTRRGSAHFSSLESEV
Test: Two-electrode voltage-clamp recordings from Xenopus laevis oocytes, GluN2D
Details: Table 2; glutamate 100 μM, glycine 30 μM; Hill fit; read-out: IC50 Glu N2D
Grouping by measured IC50 is done with the following cut points: low bin: < 20 µM; mid bin: ≥ 20 µM and < 50 µM; high bin: ≥ 50 µM

Reference set, count: 3
{"chemical_string": "Cc1ccc(-c2csc3ncn(CC(=O)N4CCC4)c(=O)c23)cc1", "class_name": "high bin"}
{"chemical_string": "Cc1sc2ncn(CC(=O)c3cccs3)c(=O)c2c1-c1cccc(I)c1", "class_name": "low bin"}
{"chemical_string": "Cc1sc2ncn(CC(=O)N3CCCC3)c(=O)c2c1-c1ccc(Cl)cc1", "class_name": "mid bin"}

Qu. Where would CCOC(=O)Cn1cnc2sc(C)c(-c3cccc(Cl)c3)c2c1=O land among the classes by reported IC50?
Ans. low bin

Qu. Where would Cc1sc2ncn(CC(=O)c3ccccc3)c(=O)c2c1-c1cccc(I)c1 land among the classes by reported IC50?
Ans. mid bin

Qu. Where would Cc1sc2ncn(CC(=O)c3cccs3)c(=O)c2c1-c1cccc(Cl)c1 land among the classes by reported IC50?
Ans. low bin

Qu. Where would Cc1sc2ncn(CC(=O)C3CCCC3)c(=O)c2c1-c1cccc(I)c1 land among the classes by reported IC50?
Ans. low bin

Qu. Where would Cc1sc2ncn(CC(=O)N3CCCCC3)c(=O)c2c1-c1ccc(Cl)cc1 land among the classes by reported IC50?
Ans. high bin

Qu. Where would Cc1sc2ncn(CC(=O)N3CCCCC3)c(=O)c2c1-c1ccc(Br)c(Br)c1 land among the classes by reported IC50?
Ans. high bin

* * *

Target: GluN2C-containing NMDA receptors (Homo sapiens, UniProt Q14957)
Sequence (Q14957 20-1233, other chains not shown): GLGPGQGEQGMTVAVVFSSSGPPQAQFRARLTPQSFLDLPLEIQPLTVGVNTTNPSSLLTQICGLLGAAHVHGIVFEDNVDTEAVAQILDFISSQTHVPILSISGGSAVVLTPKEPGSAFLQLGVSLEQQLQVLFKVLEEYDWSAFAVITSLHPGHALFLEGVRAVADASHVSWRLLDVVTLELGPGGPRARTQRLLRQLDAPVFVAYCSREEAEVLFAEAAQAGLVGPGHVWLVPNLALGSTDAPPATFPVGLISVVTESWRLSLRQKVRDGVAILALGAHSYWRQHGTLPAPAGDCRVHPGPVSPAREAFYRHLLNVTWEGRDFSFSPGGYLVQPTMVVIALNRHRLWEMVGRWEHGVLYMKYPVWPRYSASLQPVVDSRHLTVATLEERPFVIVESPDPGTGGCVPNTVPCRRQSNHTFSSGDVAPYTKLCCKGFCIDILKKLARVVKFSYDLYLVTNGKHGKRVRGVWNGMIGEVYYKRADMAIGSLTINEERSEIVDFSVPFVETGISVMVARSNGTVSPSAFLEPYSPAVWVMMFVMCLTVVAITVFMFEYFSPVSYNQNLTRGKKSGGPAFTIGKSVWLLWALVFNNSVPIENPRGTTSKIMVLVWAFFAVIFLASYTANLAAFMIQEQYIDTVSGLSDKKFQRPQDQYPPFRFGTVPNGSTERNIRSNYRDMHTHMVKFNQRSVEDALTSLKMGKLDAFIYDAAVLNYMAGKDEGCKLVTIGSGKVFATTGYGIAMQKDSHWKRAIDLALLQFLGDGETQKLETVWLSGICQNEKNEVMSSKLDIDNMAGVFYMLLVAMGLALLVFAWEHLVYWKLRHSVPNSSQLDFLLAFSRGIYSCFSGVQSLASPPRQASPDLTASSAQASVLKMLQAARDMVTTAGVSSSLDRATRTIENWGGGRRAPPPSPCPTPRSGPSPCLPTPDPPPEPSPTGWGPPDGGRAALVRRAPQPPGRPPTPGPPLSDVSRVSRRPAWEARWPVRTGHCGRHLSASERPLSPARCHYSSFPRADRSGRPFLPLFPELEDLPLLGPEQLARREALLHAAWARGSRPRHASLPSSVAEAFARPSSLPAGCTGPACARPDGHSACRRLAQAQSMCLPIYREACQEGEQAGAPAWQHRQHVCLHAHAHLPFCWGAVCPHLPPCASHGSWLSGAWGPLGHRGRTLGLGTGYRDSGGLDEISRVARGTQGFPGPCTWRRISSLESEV
Assay: Two-electrode voltage-clamp recordings from Xenopus laevis oocytes, GluN2C
Type: cell-based
Details: Table 1; in brackets after EC50; percent of response without compound
Description: Xenopus laevis oocytes were injected with cRNA encoding the NMDA receptor subunits. Two to seven days after injection, two-electrode voltage-clamp recordings were performed. Extracellular solutions were made from a solutions containing (in mM) 90 NaCl, 3 KCl, 10 HEPES, 0.5 BaCl2, 0.01 EDTA (pH 7.4 with NaOH). […] Potency was determined by adding increasing concentrations of test compound to saturating concentrations of glutamate (100 μM) and glycine (30 μM), and the response amplitude measured. […]
maximal potentiation Glu N2C overview
Number only, in %; omit the unit.

{"chemical_string": "CCc1ccc(-c2csc3ncn(CC(=O)N4CCCC4)c(=O)c23)cc1", "maximal potentiation Glu N2C, %": 417}
{"chemical_string": "Cc1sc2ncn(CC(=O)N3CCCC3)c(=O)c2c1-c1cccc(N=[N+]=[N-])c1", "maximal potentiation Glu N2C, %": 613}
{"chemical_string": "Cc1sc2ncn(CC(=O)N3CCCC3)c(=O)c2c1-c1ccc2c(c1)CCC2", "maximal potentiation Glu N2C, %": 475}
{"chemical_string": "Cc1sc2ncn(CC(=O)N3CCCC3)c(=O)c2c1-c1ccc(OCc2ccccc2)cc1", "maximal potentiation Glu N2C, %": 392}

# context switch: different molecule, same maximal potentiation Glu N2C
Qu. GET /values?readout=maximal potentiation Glu N2C&system=GluN2C-containing NMDA receptors (Homo sapiens, UniProt Q14957)&item= Cc1sc2ncn(CC(=O)N3CCCC3)c(=O)c2c1-c1ccc(Cl)cc1
Ans. 347

* * *

Molecular target: GluN2C-containing NMDA receptors (Homo sapiens)
Assay: Two-electrode voltage-clamp recordings from Xenopus laevis oocytes, GluN2C
Type: cell-based
Details: Table 2; glutamate 100 μM, glycine 30 μM; Hill fit; read-out: IC50 Glu N2C
readout: IC50 (µM)
Number only, in µM; omit the unit.

{"compound": "CCOC(=O)Cn1cnc2sc(C)c(-c3cccc(Cl)c3)c2c1=O [1 / 3-Cl—Ph / Me / OEt]", "result_value": 26}
{"compound": "Cc1sc2ncn(CC(=O)c3cccs3)c(=O)c2c1-c1cccc(I)c1 [1 / 3-I—Ph / Me / 2-thiophene]", "result_value": 9.3}
{"compound": "Cc1sc2ncn(CC(=O)c3ccccc3)c(=O)c2c1-c1cccc(I)c1 [1 / 3-I—Ph / Me / Ph]", "result_value": 15}

Qu. Give its IC50 value. Item: Cc1sc2ncn(CC(=O)N3CCCC3)c(=O)c2c1-c1ccc(Cl)cc1 [1 / 4-Cl—Ph / Me / —Npyrrolidine]
Ans. 15

Qu. Give its IC50 value. Item: Cc1sc2ncn(CC(=O)N3CCCCC3)c(=O)c2c1-c1ccc(Br)c(Br)c1 [1 / 3,4-Br—Ph / Me / —Npiperidine]
Ans. 15

Qu. Give its IC50 value. Item: Cc1sc2ncn(CC(=O)N3CCCCC3)c(=O)c2c1-c1cc(Br)cc(Br)c1 [1 / 3,5-Br—Ph / Me / —Npiperidine]
Ans. 4.3

Qu. Give its IC50 value. Item: Cc1sc2ncn(CC(=O)C3CCCC3)c(=O)c2c1-c1cccc(I)c1 [1 / 3-I—Ph / Me / -cyclopentyl]
Ans. 9.4

* * *

Target: UniProt O15399
Experiment: Two-electrode voltage-clamp recordings from Xenopus laevis oocytes, GluN2D
Format: cell-based
Details: Table 1; in brackets after EC50; percent of response without compound
readout: maximal potentiation Glu N2D

Solved cases below.
{"chemical_string": "Cc1sc2ncn(CC(=O)N3CCCC3)c(=O)c2c1-c1cccc(Br)c1", "maximal potentiation Glu N2D": "687%"}
{"chemical_string": "CCOc1ccc(-c2c(C)sc3ncn(CC(=O)N4CCCC4)c(=O)c23)cc1", "maximal potentiation Glu N2D": "232%"}
{"chemical_string": "Cc1ccc(-c2csc3ncn(CC(=O)N4CCCC4)c(=O)c23)cc1", "maximal potentiation Glu N2D": "560%"}
{"chemical_string": "Cc1sc2ncn(CC(=O)N3CCCC3)c(=O)c2c1-c1cccc(Cl)c1", "maximal potentiation Glu N2D": "830%"}
{"chemical_string": "Cc1sc2ncn(CC(=O)N3CCCC3)c(=O)c2c1-c1cccc(I)c1", "maximal potentiation Glu N2D": "1068%"}
{"chemical_string": "Cc1sc2ncn(CC(=O)N3CCCC3)c(=O)c2c1-c1ccc(Br)c(Br)c1", "maximal potentiation Glu N2D": "1205%"}

Qu. Give its maximal potentiation Glu N2D value. Item: Cc1sc2ncn(CC(=O)N3CCCC3)c(=O)c2c1-c1ccc(F)cc1
Ans. 428%

Qu. Give its maximal potentiation Glu N2D value. Item: CCc1ccc(-c2csc3ncn(CC(=O)N4CCCC4)c(=O)c23)cc1
Ans. 355%

Qu. Give its maximal potentiation Glu N2D value. Item: O=C(Cn1cnc2scc(-c3ccc(I)cc3)c2c1=O)N1CCCC1
Ans. 206%

These entries and their values trace back to patent US12006328B2.
